# tested-on: proteasome β1 (Homo sapiens, UniProt P28072)
Square brackets hold non-standard residues; d marks the D form. Peptide text beside a SMILES is read from it. Nle = CCCC[C@H](N)C(=O)O
reported-endpoint: IC50 (µM)
Answers are plain numbers, in µM.

{"columns": ["molecule", "readout-value"],
 "data": [
  ["CC(C)C[C@H](NC(=O)CNC(=O)c1cc(Cl)ccc1Cl)B(O)O [MLN2238, reference compound]", 0.029]
]}

// next item, IC50 requested
What is its IC50 for proteasome β1 (Homo sapiens, UniProt P28072)? Entry: CCCC[C@@H](C=O)NC(=O)[C@H](CC(C)C)NC(=O)[C@H](CC(C)C)NC(C)=O [ALLN, reference compound] (Ac-Leu-Leu-[Nle]-aldehyde)
9.8

###

Square brackets hold non-standard residues; d marks the D form. Peptide text beside a SMILES is read from it. Nle = CCCC[C@H](N)C(=O)O
# collection of IC50 values tested on proteasome β2 (Homo sapiens)
Numbers only, in µM.

{"columns": ["compound", "reported-endpoint", "readout-value"],
 "data": [
  ["CCCC[C@@H](C=O)NC(=O)[C@H](CC(C)C)NC(=O)[C@H](CC(C)C)NC(C)=O [ALLN, reference compound] (Ac-Leu-Leu-[Nle]-aldehyde)", "IC50", 4.3]
]}

Need IC50 of CC(C)C[C@H](NC(=O)CNC(=O)c1cc(Cl)ccc1Cl)B(O)O [MLN2238, reference compound] , thanks.
8.9

###

Square brackets hold non-standard residues; d marks the D form. Peptide text beside a SMILES is read from it. Nle = CCCC[C@H](N)C(=O)O
Observed IC50 for proteasome β5 (Homo sapiens, UniProt P28074), reported per entry below.
Numbers only, in µM.

{"columns": ["compound", "IC50 / µM"],
 "data": [
  ["CCCC[C@@H](C=O)NC(=O)[C@H](CC(C)C)NC(=O)[C@H](CC(C)C)NC(C)=O [ALLN, reference compound] (Ac-Leu-Leu-[Nle]-aldehyde)", 1]
]}

Pending compound:
Report IC50 for CCCC[C@H](NC(=O)[C@H](CC(C)C)NC(=O)[C@H](CC(C)C)NC(C)=O)C(=O)NCCCCCCNC(=O)COc1c(OC)cc(Cc2cnc(N)nc2N)cc1OC please.
46.2

###

# tested-on: proteasome β1 (Homo sapiens, UniProt P28072)
For each of the compounds below, state its IC50.

These recorded examples may help you get a feel for the data.
{"columns": ["compound", "IC50"],
 "data": [
  ["CCCC[C@H](NC(=O)[C@H](CC(C)C)NC(=O)[C@H](CC(C)C)NC(C)=O)C(=O)NCCCCCCNC(=O)COc1c(OC)cc(Cc2cnc(N)nc2N)cc1OC [compound 2]", "> 160 µM"],
  ["COc1cc(Cc2cnc(N)nc2N)cc(OC)c1OCC(=O)NCCCCCCNC(=O)[C@H](CC(C)C)NC(=O)[C@H](Cc1ccccc1)NC(=O)c1cnccn1 [compound 3]", "> 160 µM"]
]}

Would you kindly share the measured IC50 for COc1cc(Cc2cnc(N)nc2N)cc(OC)c1OCC(=O)NCCCCCCNC(=O)[C@H](CC(C)C)NC(=O)CNC(=O)c1cc(Cl)ccc1Cl [compound 1] ?
> 160 µM

###

pIC50, proteasome β2 (Homo sapiens, UniProt Q99436), per-entry values.
pIC50: −log10 of the molar value.

Below, each entry is followed by its recorded pIC50 result.
{"columns": ["compound-structure-string", "pIC50"],
 "data": [
  ["COc1cc(Cc2cnc(N)nc2N)cc(OC)c1OCC(=O)NCCCCCCNC(=O)[C@H](CC(C)C)NC(=O)CNC(=O)c1cc(Cl)ccc1Cl", "< 3.80"],
  ["COc1cc(Cc2cnc(N)nc2N)cc(OC)c1OCC(=O)NCCCCCCNC(=O)[C@H](CC(C)C)NC(=O)[C@H](Cc1ccccc1)NC(=O)c1cnccn1", "< 3.80"]
]}

Attention now turns to another entry.
Given the molecule CCCC[C@H](NC(=O)[C@H](CC(C)C)NC(=O)[C@H](CC(C)C)NC(C)=O)C(=O)NCCCCCCNC(=O)COc1c(OC)cc(Cc2cnc(N)nc2N)cc1OC , what is its reported pIC50?
< 3.80

Every entry's value here was drawn from paper PMC10386196.
